# System: LXRa homodimer (NR concentration 270 nM)
# ASSAY EXPLANATION: PBM binding z-score (relative to random genomic background probes); higher = stronger binding; sequences stand for … in GC…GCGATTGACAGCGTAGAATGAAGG
// no (0) strictly below 0.1 in PBM binding z-score; yes (1) otherwise

Example cases with answers are listed next.
{"columns": ["ORDERED RESIDUES", "ASSIGNED LABEL"],
 "data": [
  ["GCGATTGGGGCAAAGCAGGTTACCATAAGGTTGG", "no (0)"],
  ["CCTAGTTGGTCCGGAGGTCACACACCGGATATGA", "yes (1)"],
  ["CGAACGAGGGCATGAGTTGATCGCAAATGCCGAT", "no (0)"],
  ["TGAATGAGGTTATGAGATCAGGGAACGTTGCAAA", "no (0)"],
  ["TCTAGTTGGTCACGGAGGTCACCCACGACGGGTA", "yes (1)"],
  ["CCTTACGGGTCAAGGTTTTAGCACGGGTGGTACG", "yes (1)"],
  ["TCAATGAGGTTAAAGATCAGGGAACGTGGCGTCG", "no (0)"],
  ["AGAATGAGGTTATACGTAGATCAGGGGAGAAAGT", "yes (1)"]
]}

Qu. Tell me whether PBM binding z-score is at least 0.1 here: `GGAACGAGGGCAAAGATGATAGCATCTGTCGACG`
Ans. no (0)

Qu. Tell me whether PBM binding z-score is at least 0.1 here: `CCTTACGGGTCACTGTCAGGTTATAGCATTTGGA`
Ans. yes (1)

Qu. Tell me whether PBM binding z-score is at least 0.1 here: `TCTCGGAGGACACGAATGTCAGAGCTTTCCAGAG`
Ans. no (0)

Qu. Tell me whether PBM binding z-score is at least 0.1 here: `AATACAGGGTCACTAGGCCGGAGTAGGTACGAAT`
Ans. yes (1)

----------
# Test system: VDR homodimer (NR concentration 270 nM)
# ASSAY EXPLANATION: PBM binding z-score (relative to random genomic background probes); higher = stronger binding; sequences stand for … in GC…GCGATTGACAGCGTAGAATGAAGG
Each record's class is read off its PBM binding z-score using these ranges: c1: < 0.3; c2: ≥ 0.3 and < 2; c3: ≥ 2

{"columns": ["ORDERED RESIDUES", "TEST TARGET", "ASSIGNED LABEL"],
 "data": [
  ["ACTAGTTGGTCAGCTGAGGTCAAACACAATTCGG", "VDR homodimer (NR concentration 270 nM)", "c3"],
  ["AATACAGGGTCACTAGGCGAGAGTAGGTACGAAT", "VDR homodimer (NR concentration 270 nM)", "c3"],
  ["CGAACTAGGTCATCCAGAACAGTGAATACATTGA", "VDR homodimer (NR concentration 270 nM)", "c2"],
  ["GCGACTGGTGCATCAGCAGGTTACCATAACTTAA", "VDR homodimer (NR concentration 270 nM)", "c1"],
  ["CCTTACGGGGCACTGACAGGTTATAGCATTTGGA", "VDR homodimer (NR concentration 270 nM)", "c1"]
]}

Qu. Class label required: `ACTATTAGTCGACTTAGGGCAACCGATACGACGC`
Ans. c1

Qu. Class label required: `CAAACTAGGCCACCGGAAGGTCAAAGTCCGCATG`
Ans. c3

Qu. Class label required: `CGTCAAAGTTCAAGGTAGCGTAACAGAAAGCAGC`
Ans. c3

Qu. Class label required: `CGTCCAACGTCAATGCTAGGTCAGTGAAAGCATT`
Ans. c1

Qu. Class label required: `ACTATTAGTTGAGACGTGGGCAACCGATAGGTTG`
Ans. c1

Qu. Class label required: `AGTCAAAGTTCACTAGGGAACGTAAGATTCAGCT`
Ans. c3

Qu. Class label required: `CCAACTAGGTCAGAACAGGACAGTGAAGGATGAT`
Ans. c2

Qu. Class label required: `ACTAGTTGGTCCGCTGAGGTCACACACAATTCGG`
Ans. c3

Qu. Class label required: `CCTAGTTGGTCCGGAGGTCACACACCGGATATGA`
Ans. c3
